molecular target: SpCyk3; assay: SPOT peptide array binding signal intensity (averaged, normalized) (arbitrary units (background-subtracted, floor 0; scale differs between SH3 domains)); higher = stronger binding of the SH3 domain to the peptide
metric: SPOT peptide array binding signal intensity
Numbers only.

binder | quantitativeResult
NNNKMRPHLPPLSSG | 1.75
GERSRPLVISILSSA | 26.5
EREKALPPIPFTTTL | 3.5
NTMKKRPAPPSLPSL | 2

Record summary for "RRGPAPPPPPRASRP" : reported SPOT peptide array binding signal intensity = 13

Values compiled from the supplement of paper PMC4466140.
